Values were extracted from patent US7465718B2.

target: rHsp90 (low affinity); experiment: Biotin-geldanamycin competition binding, purified native HSP90 protein (rHsp90, low affinity); conditions: read-out: rHsp90 (low affinity) IC50 nM; inhibition of biotin-GM binding to purified HSP90, 4° C.
Assignment: determine reported IC50 for the given molecules.
Give bare numbers, in nM.

COC1C=CC=C(C)C(=O)NC2=CC(=O)C(NCCCNCCCNC3=C4CC(C)CC(OC)C(O)C(C)C=C(C)C(OC(N)=O)C(OC)C=CC=C(C)C(=O)NC(=CC3=O)C4=O)=C(CC(C)CC(OC)C(O)C(C)C=C(C)C1OC(N)=O)C2=O (centres unmarked) :: 2000
COC1/C=C\C=C(/C)C(=O)NC2=CC(=O)C(NC(=O)c3ccccc3)=C(CC(C)CC(OC)C(O)C(C)/C=C(\C)C1OC(N)=O)C2=O (centres unmarked) :: 4500
COC1/C=C\C=C(/C)C(=O)NC2=CC(=O)C(NC(=O)c3ccccn3)=C(CC(C)CC(OC)C(O)C(C)/C=C(\C)C1OC(N)=O)C2=O (centres unmarked) :: 1000
CO[C@H]1/C=C\C=C(/C)C(=O)NC2=CC(=O)C(NC(=O)c3ccc(CN(C)C)cc3)=C(C[C@@H](C)C[C@H](OC)[C@H](O)[C@@H](C)/C=C(\C)[C@@H]1OC(N)=O)C2=O :: 2000

Next:
Given the entry "CO[C@H]1/C=C\C=C(/C)C(=O)NC2=CC(=O)C(NC(=O)OCc3ccc(OC(C)=O)cc3)=C(C[C@@H](C)C[C@H](OC)[C@H](O)[C@@H](C)/C=C(\C)[C@@H]1OC(N)=O)C2=O" , report its measured IC50. 1500

----------
Assignment: determine reported melting point for the given compounds.

Past entries and their recorded results:
COC1/C=C\C=C(/C)C(=O)NC2=CC(=O)C(NC(=O)c3cc(C)nn3C)=C(CC(C)CC(OC)C(O)C(C)/C=C(\C)C1OC(N)=O)C2=O (centres unmarked) :: 193 to 195 °C
COC1C=CC=C(C)C(=O)NC2=CC(=O)C(NCCCNCCCNC3=C4CC(C)CC(OC)C(O)C(C)C=C(C)C(OC(N)=O)C(OC)C=CC=C(C)C(=O)NC(=CC3=O)C4=O)=C(CC(C)CC(OC)C(O)C(C)C=C(C)C1OC(N)=O)C2=O (centres unmarked) [Compound #237] :: 165 °C
CO[C@H]1/C=C\C=C(/C)C(=O)NC2=CC(=O)C(NC(=O)c3ccc(CN(C)C)cc3)=C(C[C@@H](C)C[C@H](OC)[C@H](O)[C@@H](C)/C=C(\C)[C@@H]1OC(N)=O)C2=O [Compound #687] :: 203 to 206 °C
COC1/C=C\C=C(/C)C(=O)NC2=CC(=O)C(NC(=O)c3ccccc3)=C(CC(C)CC(OC)C(O)C(C)/C=C(\C)C1OC(N)=O)C2=O (centres unmarked) [Compound #563, 17-(benzoyl)-aminogeldanamycin] :: 218 to 220 °C
COC1/C=C\C=C(/C)C(=O)NC2=CC(=O)C(NC(=O)c3c(C)noc3C)=C(CC(C)CC(OC)C(O)C(C)/C=C(\C)C1OC(N)=O)C2=O (centres unmarked) :: 190 to 192 °C
COC1C=CC=C(C)C(=O)NC2=CC(=O)C(NCCCN(C)CCCNC3=C4CC(C)CC(OC)C(O)C(C)C=C(C)C(OC(N)=O)C(OC)C=CC=C(C)C(=O)NC(=CC3=O)C4=O)=C(CC(C)CC(OC)C(O)C(C)C=C(C)C1OC(N)=O)C2=O (centres unmarked) [Compound #208] :: 153 °C (dec.)

# batch: return melting point for each of the 2 compounds below
1. COC1/C=C\C=C(/C)C(=O)NC2=CC(=O)C(NC(=O)c3ccncc3)=C(CC(C)CC(OC)C(O)C(C)/C=C(\C)C1OC(N)=O)C2=O (centres unmarked) [Compound #530, 17-isonicotinoyl-aminogeldanamycin]
2. COC1/C=C\C=C(/C)C(=O)NC2=CC(=O)C(NC(=O)c3ccccn3)=C(CC(C)CC(OC)C(O)C(C)/C=C(\C)C1OC(N)=O)C2=O (centres unmarked) [Compound #529, 17-picolinoyl-aminogeldanamycin]

["167 to 169 °C", "195 to 197 °C"]

----------
Assignment: determine reported CC50 for the given molecules.
experiment: MTS assay to measure cytotoxicity of PBMC; type: cell-based, human; conditions: human, PBMC, PBMCs without virus, read-out: TC50 (μM) (50% cytotoxicity)
Give bare numbers, in µM.

C=CCNC1=C2C[C@@H](C)C[C@H](OC)[C@H](O)[C@@H](C)/C=C(\C)[C@H](OC(N)=O)[C@@H](OC)/C=C\C=C(/C)C(=O)NC(=CC1=O)C2=O [Compound 17-AAG, 17-allyl amino geldanamycin, reference compound] :: 2.02
C=CCO/N=C1/[C@@H](OC)C[C@H](C)CC2=C(NC(=O)c3ccccc3)C(=O)C=C(NC(=O)/C(C)=C/C=C\[C@H](OC)[C@@H](OC(N)=O)/C(C)=C/[C@@H]1C)C2=O (stereo in doubt) :: 2.9
COC1C=CC=C(C)C(=O)NC2=CC(=O)C(NCCCN(C)CCCNC3=C4CC(C)CC(OC)C(O)C(C)C=C(C)C(OC(N)=O)C(OC)C=CC=C(C)C(=O)NC(=CC3=O)C4=O)=C(CC(C)CC(OC)C(O)C(C)C=C(C)C1OC(N)=O)C2=O (stereo not shown) :: 0.27

Next:
Given the entry "CO[C@H]1/C=C\C=C(/C)C(=O)NC2=CC(=O)C(NC(=O)OCC(C)C)=C(C[C@@H](C)C[C@H](OC)[C@H](O)[C@@H](C)/C=C(\C)[C@@H]1OC(N)=O)C2=O" , report its measured CC50. 1.12

----------
tested on: HSP90 (cell lysate, high affinity); assay: Biotin-geldanamycin competition binding, HSP90 in cell lysate (high affinity); conditions: rHsp90 (low affinity) IC50 over lysate (high affinity) IC50
Assignment: determine reported ratio for the given compounds.
One number for each entry.

COC1/C=C\C=C(/C)C(=O)NC2=CC(=O)C(NC(=O)c3ccccn3)=C(CC(C)CC(OC)C(O)C(C)/C=C(\C)C1OC(N)=O)C2=O (centres unmarked) :: 67
COC1/C=C\C=C(/C)C(=O)NC2=CC(=O)C(NC(=O)c3ccccc3)=C(CC(C)CC(OC)C(O)C(C)/C=C(\C)C1OC(N)=O)C2=O (centres unmarked) :: 90
COC1C=CC=C(C)C(=O)NC2=CC(=O)C(NCCCNCCCNC3=C4CC(C)CC(OC)C(O)C(C)C=C(C)C(OC(N)=O)C(OC)C=CC=C(C)C(=O)NC(=CC3=O)C4=O)=C(CC(C)CC(OC)C(O)C(C)C=C(C)C1OC(N)=O)C2=O (centres unmarked) :: 67
CO[C@H]1/C=C\C=C(/C)C(=O)NC2=CC(=O)C(NC(=O)OCc3ccc(OC(C)=O)cc3)=C(C[C@@H](C)C[C@H](OC)[C@H](O)[C@@H](C)/C=C(\C)[C@@H]1OC(N)=O)C2=O :: 167

Next:
Given the entry "CO[C@H]1/C=C\C=C(/C)C(=O)NC2=CC(=O)C(NC(=O)c3ccc(CN(C)C)cc3)=C(C[C@@H](C)C[C@H](OC)[C@H](O)[C@@H](C)/C=C(\C)[C@@H]1OC(N)=O)C2=O" , report its measured ratio. 250

----------
Assignment: determine reported IC50 for the given compounds.
target: HSP90 (bis-ANS treated); experiment: Biotin-geldanamycin competition binding, bis-ANS treated HSP90
Answers are plain numbers, in µM.

CO[C@H]1/C=C\C=C(/C)C(=O)NC2=CC(=O)C(NC(=O)c3ccccc3)=C(C[C@@H](C)C[C@H](OC)[C@@H](OC(=O)CBr)[C@@H](C)/C=C(\C)[C@@H]1OC(N)=O)C2=O [Compound #981] :: 5.5
CCCCCC(=O)O[C@@H]1[C@@H](OC)C[C@H](C)CC2=C(NC(=O)c3ccccc3)C(=O)C=C(NC(=O)/C(C)=C/C=C\[C@H](OC)[C@@H](OC(N)=O)/C(C)=C/[C@@H]1C)C2=O [Compound #985] :: 12
CO[C@H]1/C=C\C=C(/C)C(=O)NC2=CC(=O)C(NC(=O)c3ccccc3)=C(C[C@@H](C)C[C@H](OC)[C@@H](OC(=O)Cc3cccs3)[C@@H](C)/C=C(\C)[C@@H]1OC(N)=O)C2=O [Compound #984] :: 4.2

Next:
Given the entry CCO/N=C1/[C@@H](OC)C[C@H](C)CC2=C(NC(=O)c3ccccc3)C(=O)C=C(NC(=O)/C(C)=C/C=C\[C@H](OC)[C@@H](OC(N)=O)/C(C)=C/[C@@H]1C)C2=O (stereo in doubt) [Compound #1013] , report its measured IC50. 5.2
